test system: BA/F3 (insSVD) cells; assay: Ba/F3-EGFR-insSVD cell survival assay (Cell Titer-Glo); format: cell-based; details: Mus musculus, BaF3, 48 h, Table 3a, cell survival, Cell Titer-Glo, with 10 ng/ml EGF, without IL-3
endpointLabel: IC50 (µM)

compound=COCCN(C)C/C=C/C(=O)N1CCn2nc(-c3ccc(Cl)cc3)c(-c3ccncc3)c2C1 units=µM quantitativereadout=0.0669
compound=C=CC(=O)N1Cc2c(-c3ccnc4[nH]cc(C)c34)c(-c3ccc(F)cc3)nn2C[C@@H]1C units=µM quantitativereadout=0.0243
compound="CC1Cn2nc(-c3ccc4ccsc4c3)c(-c3ccncc3)c2CN1C(=O)/C=C/CN(C)C (racemic)" units=µM quantitativereadout=0.256
compound=CN(C)C/C=C/C(=O)N1CCn2nc(-c3ccc(Cl)cc3F)c(-c3ccncc3)c2C1 units=µM quantitativereadout=0.0703
compound=C=CC(=O)N1CCn2nc(-c3ccc(Cl)cc3F)c(-c3c(F)cnc4[nH]ccc34)c2C1 units=µM quantitativereadout=0.0547
compound=O=C(C#CCN1CCOCC1)N1CCn2nc(-c3ccc(F)cc3)c(-c3ccncc3)c2C1 units=µM quantitativereadout=0.0602
compound="O=C(C#CC1CCCN1)N1CCn2nc(-c3ccc(F)cc3)c(-c3ccncc3)c2C1 (racemic)" units=µM quantitativereadout=3.79
compound=C=CC(=O)N1CCn2nc(-c3ccc(Cl)cc3)c(-c3ccncc3)c2C1 units=µM quantitativereadout=0.0132

----------
Measured pIC50, listed per entry.
target: mutEGFR (D770_N771insNPG, T790) (Homo sapiens, UniProt P00533, INS770NPG/T790M); construct: exact insNPG construct not described; in-house EGFR proteins were N-terminal GST fusions from baculovirus/insect cells (borders R669-A1210 given only for WT, insSVD, insASV); assay: mutEGFR (D770_N771insNPG, T790) kinase assay; format: biochemical; settings: Table 2a, D770_N771insNPG
Sequence (P00533 with tags, fused parts or gaps INS770NPG/T790M limits assumed): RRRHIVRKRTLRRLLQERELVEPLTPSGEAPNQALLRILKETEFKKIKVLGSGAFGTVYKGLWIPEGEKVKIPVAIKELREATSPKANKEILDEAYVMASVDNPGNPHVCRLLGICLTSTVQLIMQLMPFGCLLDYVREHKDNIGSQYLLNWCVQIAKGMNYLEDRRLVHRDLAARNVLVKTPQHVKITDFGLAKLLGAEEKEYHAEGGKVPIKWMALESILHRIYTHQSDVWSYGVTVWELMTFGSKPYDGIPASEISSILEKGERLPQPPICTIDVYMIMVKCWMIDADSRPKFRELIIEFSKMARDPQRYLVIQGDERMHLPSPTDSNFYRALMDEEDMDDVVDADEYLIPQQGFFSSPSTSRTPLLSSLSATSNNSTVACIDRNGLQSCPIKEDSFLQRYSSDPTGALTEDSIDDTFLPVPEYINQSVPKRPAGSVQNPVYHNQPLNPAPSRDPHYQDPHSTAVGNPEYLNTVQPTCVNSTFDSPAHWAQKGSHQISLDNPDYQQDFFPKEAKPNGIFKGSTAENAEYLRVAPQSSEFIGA
pIC50: −log10 of the molar value.
endpointLabel: pIC50

molecule="C=CC(=O)N1CCn2nc(-c3ccc(C(F)(F)F)cc3)c(-c3ccnc4[nH]ccc34)c2C1C (single isomer, unassigned; isomer 1) [Example 258]" quantitativereadout=5.97
molecule="O=C(/C=C/C(F)(F)F)N1CCn2nc(-c3ccc(F)cc3)c(-c3ccncc3)c2C1 [Example 67]" quantitativereadout=8.48
molecule="C=CS(=O)(=O)N1CCn2nc(-c3ccc(F)cc3)c(-c3ccncc3)c2C1 [Example 14]" quantitativereadout=9.06
molecule="C=CC(=O)N1Cc2c(-c3ccncc3)c(-c3ccc(F)cc3)nn2C(C(N)=O)C1 (racemic) [Example 204]" quantitativereadout=7.76

----------
test system: BA/F3 (insSVD) cells; assay: Ba/F3-EGFR-insSVD cell survival assay (Cell Titer-Glo); assay type: cell-based; details: Mus musculus, BaF3, 48 h, Table 3a, cell survival, Cell Titer-Glo, with 10 ng/ml EGF, without IL-3
pIC50: −log10 of the molar value.
endpointLabel: pIC50

compound=C=CC(=O)N1CCn2nc(-c3ccc(Cl)cc3F)c(-c3ccnc(NC)c3)c2C1 quantitativereadout=7.35
compound=C=CC(=O)N1CCn2nc(-c3cccc(Cl)c3F)c(-c3ccnc4[nH]cc(C)c34)c2C1 quantitativereadout=7.20
compound=C=C(F)C(=O)N1CCn2nc(-c3ccc(F)cc3)c(-c3ccncc3)c2C1 quantitativereadout=5.94
compound=C=CC(=O)N1CCn2nc(-c3ccc(Cl)c(Cl)c3)c(-c3ccncc3)c2C1 quantitativereadout=7.83
compound=CN(C)C/C=C/C(=O)N1CCn2nc(-c3cccc(Cl)c3)c(-c3ccncc3)c2C1 quantitativereadout=7.27
compound=Cc1cccc(-c2nn3c(c2-c2ccncc2)CN(C(=O)/C=C/CN(C)C)CC3)c1 quantitativereadout=6.93
compound=CN(C/C=C/C(=O)N1CCn2nc(-c3ccc(Cl)cc3)c(-c3ccncc3)c2C1)CCO quantitativereadout=6.72
compound=C=CC(=O)N1Cc2c(-c3ccncc3)c(-c3ccc4sccc4c3)nn2C[C@H]1C quantitativereadout=8.56
compound=C=CC(=O)N1CCn2nc(-c3ccc4occc4c3)c(-c3ccncc3)c2C1 quantitativereadout=7.82
compound=C=CC(=O)N1CCn2nc(-c3cccc(C(F)(F)F)c3)c(-c3ccnc4[nH]cc(C)c34)c2C1 quantitativereadout=7.23
compound=C=CC(=O)N1Cc2c(-c3ccncc3)c(-c3ccc(Cl)cc3)nn2C[C@@H]1C quantitativereadout=7.86
compound=C=CC(=O)N1Cc2c(-c3ccnc4[nH]cc(C)c34)c(-c3cccc(C#N)c3)nn2C[C@H]1C quantitativereadout=6.28
compound=CN(C)C/C=C/C(=O)N1CCn2nc(-c3ccc(C(F)(F)F)c(F)c3)c(-c3ccncc3)c2C1 quantitativereadout=6.39
compound=CC(C)N(C)C/C=C/C(=O)N1CCn2nc(-c3ccc(Cl)cc3)c(-c3ccncc3)c2C1 quantitativereadout=7.11
compound=Cc1c[nH]c2nccc(-c3c(-c4cccc(C#N)c4)nn4c3CN(C(=O)/C=C/CN(C)C)[C@@H](C)C4)c12 quantitativereadout=6.74
compound=O=C(/C=C/CN1CCCCC1)N1CCn2nc(-c3ccc(Cl)cc3)c(-c3ccncc3)c2C1 quantitativereadout=7.32
compound=CO[C@H]1CCN(C/C=C/C(=O)N2CCn3nc(-c4ccc(F)cc4)c(-c4ccncc4)c3C2)C1 quantitativereadout=6.88
compound=COc1ccc(-c2nn3c(c2-c2ccncc2)CN(C(=O)/C=C/CN(C)C)CC3)cc1F quantitativereadout=6.06
compound=CC#CC(=O)N1CCn2nc(-c3ccc(F)cc3)c(-c3ccncc3)c2C1 quantitativereadout=6.11
compound=C=CC(=O)N1CCn2nc(-c3ccc(C)cc3F)c(-c3ccnc4[nH]ccc34)c2C1 quantitativereadout=7.30
compound=C=CC(=O)N1CCn2nc(-c3cc4ccoc4cc3F)c(-c3ccncc3)c2C1 quantitativereadout=7.69
compound=C=CC(=O)N1Cc2c(-c3ccnc4[nH]cc(C)c34)c(-c3ccc(C(F)(F)F)cc3)nn2C[C@@H]1C quantitativereadout=7.23
compound=COc1ccc(-c2nn3c(c2-c2ccnc4[nH]cc(C)c24)CN(C(=O)/C=C/CN(C)C)CC3)cc1 quantitativereadout=6.19
compound=CC(C)(C)OC(=O)NCC#CC(=O)N1CCn2nc(-c3ccc(F)cc3)c(-c3ccncc3)c2C1 quantitativereadout=6.78
compound=C=CC(=O)N1Cc2c(-c3ccncc3)c(-c3ccc(C(F)(F)F)cc3F)nn2C[C@H]1C quantitativereadout=7.34
compound=C=CC(=O)N1CCn2nc(-c3ccc(C(F)(F)F)cc3)c(-c3ccnc4[nH]cc(C)c34)c2C1 quantitativereadout=7.04
compound="C=CC(=O)N1Cc2c(-c3ccncc3)c(-c3ccc(C(F)(F)F)cc3F)nn2CC1C (racemic)" quantitativereadout=7.81
compound=CN(C)C/C=C/C(=O)N1CCn2nc(-c3cccc(C#N)c3)c(-c3ccncc3)c2C1 quantitativereadout=6.12
compound=CN(C)C/C=C/C(=O)N1CCn2nc(-c3ccc(F)cc3)c(-c3ccnc(NC(=O)C4CC4)c3)c2C1 quantitativereadout=7.69
compound="C=CC(=O)N1Cc2c(-c3ccncc3)c(-c3ccc(F)cc3)nn2C(C(N)=O)C1 (racemic)" quantitativereadout=6.87
compound=C=CC(=O)N1CCn2nc(-c3ccc(Cl)c(C#N)c3)c(-c3ccncc3)c2C1 quantitativereadout=6.74
